Listed below: MIC values for each entry.
Test system: Streptococcus pyogenes
Assay: Antibacterial activity against inducibly macrolide-lincosamide-streptogramin B resistant Streptococcus pyogenes by agar microdilution method
Type: functional
Note: unit µg/mL is implicit; provide only the numeric part.

Recorded results for 5 molecules are shown here.
molecule: O=C(O)c1cn(C2CC2)c2cc(N3CCNCC3)c(F)cc2c1=O
reading.unit: µg/mL
value.measured: 0.25
//
molecule: CCC1OC(=O)[C@H](C)[C@@H](O[C@H]2C[C@@](C)(OC)[C@@H](OC(=O)CNC(=O)CNC(=O)CSc3cnc4ccccc4n3)[C@H](C)O2)C(C)[C@@H](O[C@@H]2O[C@H](C)C[C@H](N(C)C)[C@H]2O)[C@](C)(O)C[C@@H](C)CN(C)[C@H](C)[C@@H](O)[C@]1(C)O (single isomer, unassigned)
reading.unit: µg/mL
value.measured: 4
//
molecule: CCC1OC(=O)[C@H](C)[C@@H](O[C@H]2C[C@@](C)(OC)[C@@H](OC(=O)CNCCCNCCOCCNc3cc4c(=O)c(C(=O)O)cn(C5CC5)c4cc3Cl)[C@H](C)O2)C(C)[C@@H](O[C@@H]2O[C@H](C)C[C@H](N(C)C)[C@H]2O)[C@](C)(O)C[C@@H](C)CN(C)[C@H](C)[C@@H](O)[C@]1(C)O (single isomer, unassigned)
reading.unit: µg/mL
value.measured: 0.25
//
molecule: CC[C@H]1OC(=O)[C@@H](C)[C@H](O[C@@H]2C[C@](C)(OC)[C@H](OC(=O)CNC(=O)CCNCCNc3cc4c(=O)c(C(=O)O)cn(C5CC5)c4cc3Cl)[C@@H](C)O2)[C@H](C)[C@H](O[C@H]2O[C@@H](C)C[C@@H](N(C)C)[C@@H]2O)[C@@](C)(O)C[C@H](C)CN(C)[C@@H](C)[C@H](O)[C@@]1(C)O (stereo in doubt)
reading.unit: µg/mL
value.measured: 0.25
//
molecule: CCC1OC(=O)[C@H](C)[C@@H](O[C@H]2C[C@@](C)(OC)[C@@H](OC(=O)CNC(=O)CCNCCOCCNc3cc4c(cc3F)c(=O)c(C(=O)O)cn4C3CC3)[C@H](C)O2)C(C)[C@@H](O[C@@H]2O[C@H](C)C[C@H](N(C)C)[C@H]2O)[C@](C)(O)C[C@@H](C)CN(C)[C@H](C)[C@@H](O)[C@]1(C)O (single isomer, unassigned)
reading.unit: µg/mL
value.measured: 4

What the record says about CCC1OC(=O)[C@H](C)[C@@H](O[C@H]2C[C@@](C)(OC)[C@@H](OC(=O)CNCCCNCCOCCOCCNc3cc4c(cc3F)c(=O)c(C(=O)O)cn4C3CC3)[C@H](C)O2)C(C)[C@@H](O[C@@H]2O[C@H](C)C[C@H](N(C)C)[C@H]2O)[C@](C)(O)C[C@@H](C)CN(C)[C@H](C)[C@@H](O)[C@]1(C)O (single isomer, unassigned) : MIC is 0.5

The molecule listed as CC[C@H]1OC(=O)[C@@H](C)[C@H](O[C@@H]2C[C@](C)(OC)[C@H](OC(=O)CNCCCNCCOCCOCCNc3cc4c(=O)c(C(=O)O)cn(C5CC5)c4cc3Cl)[C@@H](C)O2)[C@H](C)[C@H](O[C@H]2O[C@@H](C)C[C@@H](N(C)C)[C@@H]2O)[C@@](C)(O)C[C@H](C)CN(C)[C@@H](C)[C@H](O)[C@@]1(C)O (stereo in doubt) shows MIC equal to 0.25

Measured MIC, CCC1OC(=O)[C@H](C)[C@@H](O[C@H]2C[C@@](C)(OC)[C@@H](OC(=O)CNC(=O)CSc3cnc4ccccc4n3)[C@H](C)O2)C(C)[C@@H](O[C@@H]2O[C@H](C)C[C@H](N(C)C)[C@H]2O)[C@](C)(O)C[C@@H](C)CN(C)[C@H](C)[C@@H](O)[C@]1(C)O (single isomer, unassigned) : 8

For this molecule ( CCC1OC(=O)[C@H](C)[C@@H](O[C@H]2C[C@@](C)(OC)[C@@H](OC(=O)CNC(=O)CCNCCNc3cc4c(cc3F)c(=O)c(C(=O)O)cn4C3CC3)[C@H](C)O2)C(C)[C@@H](O[C@@H]2O[C@H](C)C[C@H](N(C)C)[C@H]2O)[C@](C)(O)C[C@@H](C)CN(C)[C@H](C)[C@@H](O)[C@]1(C)O (single isomer, unassigned) ), measured MIC is 1

Documented MIC of CCC1OC(=O)[C@H](C)[C@@H](O[C@H]2C[C@@](C)(OC)[C@@H](OC(=O)CNC(=O)CCNCCOCCOCCNc3cc4c(cc3F)c(=O)c(C(=O)O)cn4C3CC3)[C@H](C)O2)C(C)[C@@H](O[C@@H]2O[C@H](C)C[C@H](N(C)C)[C@H]2O)[C@](C)(O)C[C@@H](C)CN(C)[C@H](C)[C@@H](O)[C@]1(C)O (single isomer, unassigned) : 4

====

System: Streptococcus pyogenes
Test: Antibacterial activity against efflux mediated macrolide resistant Streptococcus pyogenes by agar microdilution method
Assay type: functional
measured.property: MIC (µg/mL)
Your answer is read as µg/mL, so omit the unit and give the number.

# value of MIC, Streptococcus pyogenes, item CCC1OC(=O)[C@H](C)[C@@H](O[C@H]2C[C@@](C)(OC)[C@@H](OC(=O)CNC(=O)CCNCCOCCNc3cc4c(=O)c(C(=O)O)cn(C5CC5)c4cc3Cl)[C@H](C)O2)C(C)[C@@H](O[C@@H]2O[C@H](C)C[C@H](N(C)C)[C@H]2O)[C@](C)(O)C[C@@H](C)CN(C)[C@H](C)[C@@H](O)[C@]1(C)O (single isomer, unassigned) = 1

====

System: Streptococcus pyogenes
Test: Antibacterial activity against efflux mediated macrolide resistant Streptococcus pyogenes by agar microdilution method
Assay type: functional
measured.property: MIC (µg/mL)
Quick note: give the figure in µg/mL, leave out the unit.

Look over these answered cases.
molecule: CCC1OC(=O)[C@H](C)[C@@H](O[C@H]2C[C@@](C)(OC)[C@@H](OC(=O)CNCCCNCCOCCNc3cc4c(cc3F)c(=O)c(C(=O)O)cn4C3CC3)[C@H](C)O2)C(C)[C@@H](O[C@@H]2O[C@H](C)C[C@H](N(C)C)[C@H]2O)[C@](C)(O)C[C@@H](C)CN(C)[C@H](C)[C@@H](O)[C@]1(C)O (single isomer, unassigned)
target: Streptococcus pyogenes
value.measured: 2

molecule: CCC1OC(=O)[C@H](C)[C@@H](O[C@H]2C[C@@](C)(OC)[C@@H](OC(=O)CNC(=O)CNC(=O)CSc3cnc4ccccc4n3)[C@H](C)O2)C(C)[C@@H](O[C@@H]2O[C@H](C)C[C@H](N(C)C)[C@H]2O)[C@](C)(O)C[C@@H](C)CN(C)[C@H](C)[C@@H](O)[C@]1(C)O (single isomer, unassigned)
target: Streptococcus pyogenes
value.measured: 0.25

molecule: CC[C@H]1OC(=O)[C@H](C)C(=O)[C@H](C)[C@@H](O[C@@H]2O[C@H](C)C[C@H](N(C)C)[C@H]2O)[C@](C)(OC)C[C@@H](C)C(=O)[C@H](C)[C@H]2N(CCCCn3cnc(-c4cccnc4)c3)C(=O)O[C@]12C
target: Streptococcus pyogenes
value.measured: 0.25

molecule: CC[C@H]1OC(=O)[C@@H](C)[C@H](O[C@@H]2C[C@](C)(OC)[C@H](OC(=O)CNC(=O)CCNCCNc3cc4c(=O)c(C(=O)O)cn(C5CC5)c4cc3Cl)[C@@H](C)O2)[C@H](C)[C@H](O[C@H]2O[C@@H](C)C[C@@H](N(C)C)[C@@H]2O)[C@@](C)(O)C[C@H](C)CN(C)[C@@H](C)[C@H](O)[C@@]1(C)O (stereo in doubt)
target: Streptococcus pyogenes
value.measured: 0.25

molecule: CC[C@H]1OC(=O)[C@@H](C)[C@H](O[C@@H]2C[C@](C)(OC)[C@H](OC(=O)CNCCCNCCOCCOCCNc3cc4c(=O)c(C(=O)O)cn(C5CC5)c4cc3Cl)[C@@H](C)O2)[C@H](C)[C@H](O[C@H]2O[C@@H](C)C[C@@H](N(C)C)[C@@H]2O)[C@@](C)(O)C[C@H](C)CN(C)[C@@H](C)[C@H](O)[C@@]1(C)O (stereo in doubt)
target: Streptococcus pyogenes
value.measured: 1

Let's switch to this molecule now.
The recorded MIC for entry CCC1OC(=O)[C@H](C)[C@@H](O[C@H]2C[C@@](C)(OC)[C@@H](OC(=O)CNC(=O)CCNCCNc3cc4c(cc3F)c(=O)c(C(=O)O)cn4C3CC3)[C@H](C)O2)C(C)[C@@H](O[C@@H]2O[C@H](C)C[C@H](N(C)C)[C@H]2O)[C@](C)(O)C[C@@H](C)CN(C)[C@H](C)[C@@H](O)[C@]1(C)O (single isomer, unassigned) equals 2
